Tested on: A549-mRuby cells
Test: Drug screening: effect on cell growth (cell number day 4 / day 0)
Conditions: 10 μM drug, repeat #1
Description: A549-mRuby cells were seeded (3,000 cells per well) in nine 384-well plates using Multidrop combi. Cells were seeded in a final volume of 30 μl with DMEM+10% BCS. The following day, 20 μl of OC43 were added (MOI 0.3) and incubated at 33° C., 5% CO2 for 1 hour. 50 nl from the Selleck FDA-approved drug library (cat #L1300, Selleck) were added (1:1,000 dilution). Two columns (32 wells) were left uninfected and two columns were treated with DMSO and virus (no drug control). […]
Where a name gives a salt, the structure may show the parent alone.
Listing of recorded Growth_1: number of cells at day 4 divided by number of cells at day 0 by entry.
readout-type: Growth_1: number of cells at day 4 divided by number of cells at day 0

compound: CCCCCCCC(=O)N[C@H](CN1CCCC1)[C@H](O)c1ccc2c(c1)OCCO2 [Eliglustat]
assay-value: 5.5
--
compound: O.O=C(c1ccc(OCCN2CCCCC2)cc1)c1c(-c2ccc(O)cc2)sc2cc(O)ccc12 [Raloxifene HCl]
assay-value: 5.0
--
compound: COc1ccccc1OCCNCC(O)COc1cccc2[nH]c3ccccc3c12 (stereo not shown) [Carvedilol]
assay-value: 4.5
--
compound: CCCNCC(O)COc1ccccc1C(=O)CCc1ccccc1.O (stereo not shown) [Propafenone HCl]
assay-value: 4.7
--
compound: C[C@@H]1CCN(C(=O)CC#N)C[C@@H]1N(C)c1ncnc2[nH]ccc12.O=C(O)CC(O)(CC(=O)O)C(=O)O [Tofacitinib (CP-690550) Citrate]
assay-value: 4.8
--
compound: COc1ccc(NC(=O)c2ccc(C(=N)N(C)C)cc2)c(C(=O)Nc2ccc(Cl)cn2)c1 [Betrixaban maleate]
assay-value: 4.6
--
compound: COc1cc2c(cc1OC)CN(CCc1ccc(NC(=O)c3cccc4c(=O)c5cccc(OC)c5[nH]c34)cc1)CC2 [Elacridar (GF120918), Elacridar]
assay-value: 4.6
